All figures here come from patent US11415579B2.

Answer each item with its documented Rate constant with Cdk2 S181C.
# target: Cdk2(S181C) (C177A) (Homo sapiens, UniProt P24941, C177A/S181C)
# Construct: poly-histidine; made in house; host or cells: E. coli
# experimentalProtocol: Kinetic thiol consumption assay with Cdk2 mutant S181C
# Type: binding
# protocolConditions: Protein: Cdk2; cysteine position S181C; additional mutation C177A; in h^-1
Answers are plain numbers.

Recorded results for 2 molecules are shown here.
molecule	Rate constant with Cdk2 S181C
C=CC(=O)Nc1ccc(-c2ncccn2)cc1	0.02267
C=CC(=O)Nc1cccc(-c2nnnn2C2CC2)c1	0.02834

Items follow; give Rate constant with Cdk2 S181C for each.
1. C=CC(=O)N1CCN(S(C)(=O)=O)CC1c1ccccc1 (stereo not drawn)
2. C=CC(=O)NCC1(NC(=O)OC(C)(C)C)CCCCC1
3. C=CC(=O)N1CCN(C(=O)OCC)CC1c1cccs1 (stereo not drawn)
4. C#CCN1CCCN(C(=O)C=C)CC1
5. C=CC(=O)NCCc1c(-c2ccccn2)[nH]c2ccccc12

[A]
0.01342
0.021
0.02699
0.002753
0.001672

Items follow; give Rate constant with Cdk2 S181C for each.
1. C=CC(=O)N1CCC2(CCCCCC2)C1
2. C=CC(=O)N1CCCCCC1C/C=C/c1ccccc1 (stereo not drawn)
3. C=CS(=O)(=O)c1ccccc1
4. C=CC(=O)NC(Cc1ccccc1)C(O)CF (stereo not drawn)
5. C=CC(=O)NC1(C2CC2)CC1
6. C=CC(=O)Nc1nc2cc3c(cc2s1)OC(F)(F)O3
7. C=CC(=O)N1CCN(c2ccccc2[N+](=O)[O-])CC1

[A]
1. 0.01029
2. 0.1459
3. 0.4008
4. 0.007559
5. 0.003402
6. 0.00817
7. 0.007065

Items follow; give Rate constant with Cdk2 S181C for each.
1. C=CC(=O)N1CCN(c2ccccc2C(N)=O)CC1
2. C=CC(=O)NCCNC(=O)c1ccccc1
3. C=CC(=O)Nc1[nH]nc(C2CC2)c1-c1ccc2c(c1)OCO2

[A]
1: 0.006043; 2: 0.003795; 3: 0.003169

Rate constant with Cdk2 S181C measured on C=CC(=O)N1CCn2c(Cc3ccccc3)nnc2C1 = 0.07642
